assay: Cell proliferation and cytotoxicity MTT assay, HMVEC; format: cell-based; details: human, HMVEC endothelial cells
Where a name gives a salt, the structure may show the parent alone.
readout: IC50 at 72 h (µM)
The response must be a number in µM with no trailing unit.

Q: IC50 at 72 h for N=C(N)NCCCOc1ccc2cc(C(=O)NC[C@H](NS(=O)(=O)c3ccccc3)C(=O)O)cc(=O)n2c1 [Compound XV, Hydrochloride] ?
A: 16

Q: Please give the result for Cl.N=C(N)NCc1ccc2cc(C(=O)NC[C@H](NS(=O)(=O)c3ccccc3)C(=O)O)cc(=O)n2c1 [Compound XXVII, Hydrochloride] too.
A: 1.2

Q: Please give the result for N=C(N)NCC1CCc2cc(C(=O)NCC(NS(=O)(=O)c3ccccc3)C(=O)O)cc(=O)n2C1 (stereo not shown) too.
A: 1

Q: Please give the result for N=C(N)NCCOc1ccc2cc(C(=O)NC[C@H](NS(=O)(=O)c3ccccc3)C(=O)O)cc(=O)n2c1 [Compound XX, Hydrochloride] too.
A: 35
